Tested on: CASKI
measurement_notes: Primary qHTS to identify gynecologic anti-cancer compounds using libraries of approved drugs and bioactive compounds (AID 1345084); further: nearly all actives have a fitted effect of over 55% in size
study_conditions: Gynecologic cancer cell panel viability, ATPlite luminescence, 48 h; series mostly up to 57.5 µM
Text: National Center for Advancing Translational Sciences [NCATS] Assay Overview: Chemotherapeutic drug responses vary from cancer to cancer and from patient to patient. […] ATPlite is a luminescence based assay reliant on the conversion of a luciferase substrate to light in the presence of ATP. As a cytotoxic compound will suppress growth and decrease the number of cells, the concentration of ATP will decrease, and less light signal will be detected in the well. […]
Records with an inconclusive call do not appear. Calls of active or inactive are those of the source. The call rests on the fitted dose curve; in most records, active means well fitted cell-killing curve with a large enough effect; inconclusive means small, poorly fitted or top-dose-only effect, or effect the other way; inactive means flat fitted curve, though single readings scatter.
endpoint_label: activity change, negative = cytotoxicity

Entry CC1=CC[C@@]2(C)CC[C@@](O)(C(C)C)[C@@H]2[C@@H](O)C1 ; activity change, negative = cytotoxicity = inactive

Entry C=CC(C)(C)C12Nc3c(ccc4c3OC(C)(C)C=C4)C1(O)CC1C(=O)N3CCCC3C(=O)N12 (centres undefined) ; activity change, negative = cytotoxicity = inactive

Entry COc1cc(C[C@@]2(O)CO[C@@H](c3ccc(O[C@@H]4O[C@H](CO)[C@@H](O)[C@H](O)[C@H]4O)c(OC)c3)[C@H]2CO)ccc1O ; activity change, negative = cytotoxicity = inactive

Entry C[C@]1(OC(=O)/C=C/c2ccc(O)cc2)C[C@@H](O)[C@]2(O)C=CO[C@@H](O[C@@H]3O[C@H](CO)[C@@H](O)[C@H](O)[C@H]3O)C12 (some centres undefined) ; activity change, negative = cytotoxicity = inactive

---

System: NIH3T3
measurement_notes: qHTS assay to identify novel small-molecules to repurpose for Merkel cell carcinoma treatment (AID 1296009); further: nearly all actives have a fitted effect of over 60% in size
study_conditions: MCC and control cell lines, CellTiter-Glo viability, 72 h; at 44.8 µM (top of the series) unless noted
Text: MCC is a rare and aggressive neuroendocrine skin cancer with limited treatment options. Approximately 80% of MCCs have the Merkel cell polyomavirus (MCPyV) DNA integrated into the host genome (virus-positive: VP-MCC) and viral oncogenes drive oncogenesis. The remaining MCCs are virus-negative (VN-MCC) and are caused by UV mutagenesis. […] Using cell viability as a readout (CellTiter-Glo assay) we found both overlapping and distinct drugs that can be repurposed for the treatment of VP-MCC and VN-MCC. […]
Inconclusive results are not listed. Calls of active or inactive are those of the source. Calls follow the shape of the dose curve; as a rule, active = well fitted inhibition curve with a large enough effect; inconclusive = small, poorly fitted or top-dose-only effect; inactive = flat fitted curve, though single readings scatter.
endpoint_label: outcome

Solved entries:
Entry C=C(C(=O)O)C1CC(OC(=O)CC(C)CC)C2(C)CCCC(=C)C2C1 (stereo unspecified) ; outcome = inactive

Entry C[C@@]1(C(=O)O)CCC[C@@]2(C)C3=CC[C@H]4C[C@@]3(CC[C@H]12)CC4(O)CO (stereo partly specified) ; outcome = inactive

Entry CC1(C)CC[C@]2(C(=O)O)CC[C@]3(C)C(=CCC4[C@@]5(C)C[C@H](O)[C@H](O[C@@H]6O[C@H](CO)[C@@H](O)[C@H](O)[C@H]6O)[C@@](C)(CO)C5[C@H](O)C[C@]43C)[C@@H]2C1 (stereo partly specified) ; outcome = inactive [at 17.4 µM]

Entry O=C(OCc1ccccc1O[C@@H]1O[C@H](CO)[C@@H](O)[C@H](O)[C@H]1O)C1(O)C=CCCC1O (stereo partly specified) ; outcome = inactive [at 17.4 µM]

More entries:
Entry CC1(C)C[C@@H]2[C@H](C1)[C@@]1(C)C[C@]13C(O)OC[C@]3(O)[C@H]2O (stereo partly specified) ; outcome = inactive
